The measurements presented in this section are drawn from ChEMBL document CHEMBL1143966.

Test: Inhibition of soybean 15-lipoxygenase
Set-up: species or system Glycine max
MEASUREMENT TYPE: IC50

MOLECULE SMILES: C=CCc1ccc(OC(=O)c2ccncc2)c(OC)c1
TEST RESULT: 2.3 µM
--
MOLECULE SMILES: C=CCc1ccc(OC(=O)c2ccc(F)cc2)c(OC)c1
TEST RESULT: 7.2 µM
--
MOLECULE SMILES: C=CCc1ccc(OC(=O)c2cccc(Cl)c2)c(OC)c1
TEST RESULT: 5.2 µM
--
MOLECULE SMILES: C=CCc1ccc(OC(=O)c2ccc(Cl)cc2)c(OC)c1
TEST RESULT: 134 µM
--
MOLECULE SMILES: C=CCc1ccc(OC(=O)c2ccc(C)cc2)c(OC)c1
TEST RESULT: 14.6 µM
--
MOLECULE SMILES: C=CCc1ccc(OC(=O)c2ccccn2)c(OC)c1
TEST RESULT: 33.3 µM
--
MOLECULE SMILES: C=CCc1ccc(OC(=O)c2ccccc2)c(OC)c1
TEST RESULT: 4.4 µM
--
MOLECULE SMILES: C=CCc1ccc(OC(=O)c2cccc(F)c2)c(OC)c1
TEST RESULT: 2.1 µM
--
MOLECULE SMILES: C=CCc1ccc(OC(=O)c2cccnc2)c(OC)c1
TEST RESULT: 1.7 µM
--
MOLECULE SMILES: C=CCc1ccc(OC(=O)c2ccccc2Cl)c(OC)c1
TEST RESULT: 168 µM
--
MOLECULE SMILES: C=CCc1ccc(O)c(OC)c1
TEST RESULT: 34.6 µM
--
MOLECULE SMILES: C=CCc1ccc(OC(=O)c2cccc(OC)c2)c(OC)c1
TEST RESULT: 23 µM

---

Assay: Partition coefficient, log P of the compound
Type: physicochemical
Conditions: octanol/water
# logP listing for each entry below
MEASUREMENT TYPE: logP

MOLECULE SMILES: C=CCc1ccc(OC(=O)c2ccccn2)c(OC)c1
TEST RESULT: 0.86
//
MOLECULE SMILES: C=CCc1ccc(OC(=O)C23CC4CC(CC(C4)C2)C3)c(OC)c1
TEST RESULT: 4.82
//
MOLECULE SMILES: C=CCc1ccc(OC(=O)c2ccccc2Cl)c(OC)c1
TEST RESULT: 2.79
//
MOLECULE SMILES: C=CCc1ccc(OC(=O)c2cccc(C)c2)c(OC)c1
TEST RESULT: 2.87
//
MOLECULE SMILES: C=CCc1ccc(OC(=O)c2ccc(OC)cc2)c(OC)c1
TEST RESULT: 1.86
//
MOLECULE SMILES: C=CCc1ccc(OC(=O)c2cccnc2)c(OC)c1
TEST RESULT: 0.86
//
MOLECULE SMILES: C=CCc1ccc(OC(=O)c2ccc(C)cc2)c(OC)c1
TEST RESULT: 2.87
//
MOLECULE SMILES: C=CCc1ccc(OC(=O)c2ccncc2)c(OC)c1
TEST RESULT: 0.86
//
MOLECULE SMILES: C=CCc1ccc(OC(=O)c2cccc(F)c2)c(OC)c1
TEST RESULT: 2.7
//
MOLECULE SMILES: C=CCc1ccc(OC(=O)c2cccc(OC)c2)c(OC)c1
TEST RESULT: 1.86
//
MOLECULE SMILES: C=CCc1ccc(OC(=O)c2ccc(F)cc2)c(OC)c1
TEST RESULT: 2.7
//
MOLECULE SMILES: C=CCc1ccc(OC(=O)c2ccc(Cl)cc2)c(OC)c1
TEST RESULT: 2.79
